System: Escherichia coli 1507 E
Assay: MIC, standard strain 11
Assay type: cell-based
Conditions: E. coli 1507 E, two-fold dilution, Muller Hinton agar, 10^7 CFU/ml, 37° C., 18 hours, read-out: Minimal Inhibitory Concentration(MIC)
Listed next: entries and their corresponding MIC.
The figure you give is taken to be in µg/mL; do not add the unit.

compound: CO/N=C(\C(=O)N[C@@H]1C(=O)N2C(C(=O)[O-])=C(C[n+]3ccc(C(N)=O)c4c3CCC4)CS[C@H]12)c1csc(N)n1 [Example 3]
unit.string: µg/mL
MIC: 25

The observed MIC for CO/N=C(\C(=O)N[C@@H]1C(=O)N2C(C(=O)[O-])=C(C[n+]3ccc(C(N)=S)c4c3CCC4)CS[C@H]12)c1csc(N)n1 [Example 5] when tested with Escherichia coli 1507 E stands at 98

// returns MIC for CCOC(=O)c1cc[n+](CC2=C(C(=O)[O-])N3C(=O)[C@@H](NC(=O)/C(=N\OC)c4csc(N)n4)[C@H]3SC2)c2c1CCC2 [Example 1] with Escherichia coli 1507 E; value = 49

# value of MIC, Escherichia coli 1507 E, item CCO/N=C(\C(=O)N[C@@H]1C(=O)N2C(C(=O)[O-])=C(C[n+]3ccc(C(N)=O)c4c3CCC4)CS[C@H]12)c1csc(N)n1 [Example 13] = 98

====

System: Escherichia coli DC 0
Test: MIC, standard strain 8
Type: cell-based
Conditions: DC0, E. coli DC 0, two-fold dilution, Muller Hinton agar, 10^7 CFU/ml, 37° C., 18 hours, read-out: Minimal Inhibitory Concentration(MIC)
Some molecules, each annotated with its measured MIC.
Quick note: give the figure in mg/L, leave out the unit.

Examples with answers:
smiles.structure: CO/N=C(\C(=O)N[C@@H]1C(=O)N2C(C(=O)[O-])=C(C[n+]3ccc(C(=O)O)c4c3CCC4)CS[C@H]12)c1csc(N)n1
test.system: Escherichia coli DC 0
endpoint.value: 49

smiles.structure: CCO/N=C(\C(=O)N[C@@H]1C(=O)N2C(C(=O)[O-])=C(C[n+]3ccc(C(N)=O)c4c3CCC4)CS[C@H]12)c1csc(N)n1
test.system: Escherichia coli DC 0
endpoint.value: 98

smiles.structure: CO/N=C(\C(=O)N[C@@H]1C(=O)N2C(C(=O)[O-])=C(C[n+]3ccc(C(N)=O)c4c3CCC4)CS[C@H]12)c1csc(N)n1
test.system: Escherichia coli DC 0
endpoint.value: 25

smiles.structure: CO/N=C(\C(=O)N[C@@H]1C(=O)N2C(C(=O)[O-])=C(C[n+]3ccc(C(N)=S)c4c3CCC4)CS[C@H]12)c1csc(N)n1
test.system: Escherichia coli DC 0
endpoint.value: 98

As a next step, examine the molecule that follows.
For record CO/N=C(\C(=O)N[C@@H]1C(=O)N2C(C(=O)[O-])=C(C[n+]3ccc(NC(C)=O)c4c3CCC4)CS[C@H]12)c1csc(N)n1 the listed MIC is 13

====

Test system: Enterobacter cloacae 1321 E
Assay: MIC, standard strain 20
Type: cell-based
Details: E. cloacae 1321 E, two-fold dilution, Muller Hinton agar, 10^7 CFU/ml, 37° C., 18 hours, read-out: Minimal Inhibitory Concentration(MIC)
measurement.name: MIC (µg/mL)
// return numeric value only (unit: µg/mL, not printed)

smiles.structure: CCO/N=C(\C(=O)N[C@@H]1C(=O)N2C(C(=O)[O-])=C(C[n+]3ccc(C(N)=O)c4c3CCC4)CS[C@H]12)c1csc(N)n1
MIC, µg/mL: 25

Form: molecule = CO/N=C(\C(=O)N[C@@H]1C(=O)N2C(C(=O)[O-])=C(C[n+]3ccc(NC(C)=O)c4c3CCC4)CS[C@H]12)c1csc(N)n1 ; MIC = 13

The measured MIC associated with CCOC(=O)c1cc[n+](CC2=C(C(=O)[O-])N3C(=O)[C@@H](NC(=O)/C(=N\OC)c4csc(N)n4)[C@H]3SC2)c2c1CCC2 reads 25
